So I've got a bunch of compounds here, and I need their fluorescence slope values.
target: Muscarinic acetylcholine receptor M4 (Homo sapiens); assay: compounds altering M4/GIRK thallium flux, either direction, primary screen, M4 allosteric agonist project, cell-based, HEK293 M4/GIRK, BTC-AM (AID 625); settings: at 10 µM, actives lie on both sides;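 also: thallium influx through GIRK channels coupled to M4 in HEK293 cells with BTC-AM dye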
Active and inactive are the calls of the source.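 The calls were made as follows: active = fluorescence slope after compound addition differing from the mean of all tested samples at 99.7% confidence, mostly higher but some lower; inactive = the rest.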

Item C=CCN(C)CCCNC(=O)/C=N/O has what recorded fluorescence slope? 0.00593 (inactive)

Item COc1cc2c(cc1OC)C1(CCCC1)C(N)=C2C#N has what recorded fluorescence slope? 0.00412 (inactive)

Item O=C(C1CCCCC1)N1CCCn2c1nc1ccccc12 has what recorded fluorescence slope? 0.00633 (inactive)

Item CC(=O)[C@H]1[C@@H]2C(=O)N(c3cccc(Cl)c3)C(=O)[C@@H]2[C@H]2c3ccccc3C=CN21 has what recorded fluorescence slope? 0.00696 (inactive)

Item CCOC(=O)c1[nH]c2ccccc2c1N=C(C)N(CC)CC has what recorded fluorescence slope? 0.00643 (inactive)

Item Cc1ccc(-n2ncc3c(NCc4ccc5c(c4)OCO5)ncnc32)c(C)c1 has what recorded fluorescence slope? 0.0052 (inactive)

Item COc1cc(/C=N/n2nnnc2N)ccc1O has what recorded fluorescence slope? 0.00627 (inactive)

Item CCCC(C)n1[nH]c(=O)cc1N (stereo not drawn) has what recorded fluorescence slope? 0.00418 (inactive)

Item CCOC(=O)C1=C(C)NC(=O)C1CC(=O)Nc1ccccc1 (stereo not drawn) has what recorded fluorescence slope? 0.00567 (inactive)

Item COc1ccc(C(=O)OC(C)CN2CCN(C)CC2)cc1OC (stereo not drawn) has what recorded fluorescence slope? 0.00501 (inactive)

Item CCCC1CC(=O)OC1(C)C(=O)CSc1n[nH]c(-c2ccccc2)n1 (stereo not drawn) has what recorded fluorescence slope? 0.00594 (inactive)

Item Cc1ccc2[nH]c3c(c2c1)CN(C(=O)CN1CC(C)OC(C)C1)CC3 (stereo not drawn) has what recorded fluorescence slope? 0.00334 (inactive)

Item Cc1cc(=O)[nH]c(COc2ccccc2)n1 has what recorded fluorescence slope? 0.00544 (inactive)

Item CCOc1ccc(C2=Nn3c(nnc3-c3ccccc3OC)SC2)cc1 has what recorded fluorescence slope? 0.00485 (inactive)

Item COc1ccc(/C(O)=C2\C(=O)C(=O)N(c3cc(C)on3)C2c2ccccc2OC)cc1C (stereo not drawn) has what recorded fluorescence slope? 0.00597 (inactive)

Item Nc1nnnn1N=C1CCCCC1 has what recorded fluorescence slope? 0.00643 (inactive)

Item COc1ccc2nc(SCC(=O)O)nc(C)c2c1 has what recorded fluorescence slope? 0.00491 (inactive)

Item CCSc1nc2sc3c(c2c2nnc(SCC(=O)NCc4ccco4)n12)CCCC3 has what recorded fluorescence slope? 0.00576 (inactive)

Item O=C(CSc1nc2ccccc2c(=O)n1CC1CCCCC1)N1CCOCC1 has what recorded fluorescence slope? 0.00433 (inactive)

Item COc1ccc(/C(O)=C2/C(=O)C(=O)N(CCN3CCOCC3)C2c2cccnc2)cc1OC (stereo not drawn) has what recorded fluorescence slope? 0.00405 (inactive)

Item Cn1c(=O)c2c(nc(NCc3ccco3)n2Cc2ccccc2Cl)n(C)c1=O has what recorded fluorescence slope? 0.00464 (inactive)

Item O=C1NCC(COCC2CC=CCC2)O1 (stereo not drawn) has what recorded fluorescence slope? 0.0053 (inactive)

Item CCOC(=O)C1=C(C)OC(N)=C(C#N)C1c1cc2ccccc2nc1N1CCCCC1 (stereo not drawn) has what recorded fluorescence slope? 0.00507 (inactive)

Item CCCCOc1ccc(C(=O)NCC(=O)NCC(=O)OCC)cc1 has what recorded fluorescence slope? 0.00496 (inactive)

Item Cc1cc(C)nc(N(C#N)CN2C(=O)c3ccccc3C2=O)n1 has what recorded fluorescence slope? 0.00446 (inactive)

Item O=C(COc1ccc(-c2nnc(N3CCCCC3)c3ccccc23)cc1)N1CCCCC1 has what recorded fluorescence slope? 0.00419 (inactive)

Item CCCCN1C(=O)C(O)=C(C(C)=O)C1c1ccc(OC)cc1OC (stereo not drawn) has what recorded fluorescence slope? 0.00466 (inactive)

Item COc1cccc(N2CCN(C(=O)c3ccc(=O)oc3)CC2C)c1 (stereo not drawn) has what recorded fluorescence slope? 0.00472 (inactive)

Item COc1cccc(C(=O)Nc2ccc(-c3nnc(-c4ccco4)o3)cc2)c1 has what recorded fluorescence slope? 0.00624 (inactive)

Item CCOC(=O)Cn1nc(C)c2ccccc2c1=O has what recorded fluorescence slope? 0.00507 (inactive)

Item CCOc1ccc(NC(=O)CSC2=C(C#N)C(c3ccc4c(c3)OCO4)CC(=O)N2)cc1 (stereo not drawn) has what recorded fluorescence slope? 0.00582 (inactive)

Item CCCCOC(=O)c1ccc(NC(=O)CSc2nncn2C)cc1 has what recorded fluorescence slope? 0.00538 (inactive)

Item CCOc1ccc(-c2nc(C#N)c(NCC(C)C)o2)cc1 has what recorded fluorescence slope? 0.00573 (inactive)

Item Cc1[nH]nc(-c2ccc(O)cc2O)c1Oc1ccccc1 has what recorded fluorescence slope? 0.00505 (inactive)

Item CCOC(=O)C(C)c1nc2ccccc2[nH]c1=O (stereo not drawn) has what recorded fluorescence slope? 0.00575 (inactive)

Item CCOC(=O)c1ccc(NC(=O)COc2ccccc2OC)cc1 has what recorded fluorescence slope? 0.00666 (inactive)

Item CS(=O)(=O)c1ccc2nc(NC(NC(=O)c3ccco3)(C(F)(F)F)C(F)(F)F)sc2c1 has what recorded fluorescence slope? 0.00497 (inactive)

Item O=C(CN1CCc2[nH]c3ccccc3c2C1)N1CCCCC1 has what recorded fluorescence slope? 0.00512 (inactive)

Item O=C(c1ccc(-n2cnnn2)cc1)N1CCOCC1 has what recorded fluorescence slope? 0.00579 (inactive)

Item N#Cc1c2c(c(-c3ccccc3)[nH]c1=O)CCCC2 has what recorded fluorescence slope? 0.00448 (inactive)

Item O=C(NCCN1CCOCC1)c1ccc(=O)oc1 has what recorded fluorescence slope? 0.0085 (inactive)

Item CCCCc1[nH]c(=O)c(C#N)c2c1CSC(C)(C)C2 has what recorded fluorescence slope? 0.00497 (inactive)

Item CC(C)c1ccc(O)c(N)c1 has what recorded fluorescence slope? 0.00607 (inactive)

Item CCOC(=O)C1CCN(c2ncnc3c2cnn3-c2ccc(OC)cc2)CC1 has what recorded fluorescence slope? 0.00612 (inactive)

Item O=C(O)c1cc2sccc2s1 has what recorded fluorescence slope? 0.005 (inactive)

Item Cc1nc(NCCCO)c(C#N)c2c1COC(C)(C)C2 has what recorded fluorescence slope? 0.00443 (inactive)

Item Cc1ccc(-c2nn(C)c(=O)c3ccccc23)cc1CNC(=O)CSc1nc2ccccc2o1 has what recorded fluorescence slope? 0.00502 (inactive)

Item Cc1cc(=O)oc(C)c1C(=O)NC1CC(C)(C)NC(C)(C)C1 has what recorded fluorescence slope? 0.00552 (inactive)

The measured values listed here are drawn from PubChem BioAssay.
